Each recorded value in this set is attributed to patent US20120010178A1.

Please respond with reported SMN GEM Intensity (inhibition of PDGF-stimulated SMN increase) for every item in the list.
System: SMN
protocolDetails: Inhibition of PDGF-stimulated SMN increase in fibroblasts by kinase/receptor inhibitors
Type: cell-based, human
experimentalParameters: inhibitor at the concentration (nM), fibroblast stimulation with PDGF
Give bare numbers, in %.

// each compound listed below needs its SMN GEM Intensity (inhibition of PDGF-stimulated SMN increase)
1. COc1cccc(-c2cc(=O)c3ccccc3o2)c1N
2. O=c1cc(N2CCOCC2)oc2c(-c3ccccc3)cccc12
3. N#CC(=C(/N)Sc1ccccc1N)/C(C#N)=C(\N)Sc1ccccc1N
4. CC(=O)O[C@@H]1[C@@H](OC(C)=O)[C@@H](O)[C@H](Oc2c(-c3ccc(O)cc3)oc3cc(O)cc(O)c3c2=O)O[C@H]1C

Reply:
[20, 100, 10, 20]
